Provenance of the data: patent US20100173930A1

Test system: SKM MYOFIBRIL
Experiment: SKM myofibril AC1.4 (ATPase, PK/LDH coupled enzyme system); also: unit not given here
Assay type: biochemical
Conditions: screen at pCa=6.5
Entries get a class label from measured SKM MYOFIBRIL AC1.4 (median). See ranges: group A (below 10), group B (10 to below 20), group C (20 or more)

1. O=C(O)c1ccc2nc(-c3ccccc3O)c(NCc3ccc(F)cc3)n2c1 group C
2. Oc1ccc(-c2nc3ccccn3c2NCc2ccccc2Cl)cc1 group B
3. Oc1ccc(-c2nc3cc(Cl)ccn3c2NCc2ccc(F)cc2)cc1 group B
4. Oc1ccc(-c2nc3ccccn3c2NCc2cccc(Cl)c2)cc1 group B
5. CCCCNc1c(-c2ccc(O)cc2)nc2ccccn12 group C

Okay, now this molecule:
Task: Which class does Cc1ccc(-c2nc3ccccn3c2NC2CCCCC2)cc1 fall in?
Output: group C

###

Test system: SKM MYOFIBRIL
Test: SKM myofibril AC1.4 (ATPase, PK/LDH coupled enzyme system); also: unit not given here
Assay type: biochemical
Details: screen at pCa=6.5
Classify: true when SKM MYOFIBRIL AC1.4 (median) is strictly less than 6; false when SKM MYOFIBRIL AC1.4 (median) is not.

// known answers, use as guide
1. Oc1ccccc1-c1nc2ccccn2c1NC1CCCCC1 false
2. Cc1ccn2c(NC3CCCC3)c(-c3ccc(O)cc3)nc2c1 true
3. CNC(=O)c1ccc2nc(-c3ccccc3O)c(NCc3ccc(F)cc3)n2c1 true
4. Oc1ccc(-c2nc3ccccn3c2NCc2ccc(Cl)cc2)cc1 false
5. Oc1ccc(-c2nc3ccc(-c4ccccc4)cn3c2NCc2ccc(F)cc2)cc1 false
6. Fc1cccc(-c2nc3ccccn3c2NCc2cccc(Cl)c2)c1 false
7. Oc1ccccc1-c1nc2ccc(Br)cn2c1NCc1ccc(F)cc1 true
8. Cc1ccn2c(NCc3cccc(Cl)c3)c(-c3ccc(Cl)cc3O)nc2c1 false
9. CCc1ccn2c(NCc3ccc(F)cc3)c(-c3ccccc3O)nc2c1 true
10. COc1cccc2nc(O)c(-c3nc4cc(C)ccn4c3NCc3cccc(Cl)c3)cc12 true

# ---- query compound ----
Task: Bench note: check whether Cc1ccn2c(NCc3cccc(Cl)c3)c(-c3ccccc3O)nc2c1 shows SKM MYOFIBRIL AC1.4 (median) below 6
Output: true

###

Tested on: SKM MYOFIBRIL
Test: SKM myofibril AC1.4 (ATPase, PK/LDH coupled enzyme system); also: unit not given here
Format: biochemical
Settings: screen at pCa=6.5
Entries are sorted into classes by SKM MYOFIBRIL AC1.4 (median) as follows: low class = under 2, middle class = from 2 up to 10, high class = 10 and over

1. Oc1ccc(-c2nc3ccc(-c4ccccc4)cn3c2NC2CCCC2)cc1 high class

Task: The entry to classify is Oc1ccc(-c2nc3ccccn3c2NC2CCCC2)cc1 ; which class holds it?
Output: high class

Task: Then this compound: CNC(=O)c1ccc2nc(-c3ccccc3O)c(NCc3cccc(Cl)c3)n2c1
Output: low class

Task: Please give the result for Cc1ccn2c(NC3CCCC3)c(-c3ccccc3O)nc2c1 too.
Output: high class

Task: Also, Cc1ccn2c(NCc3ccc(F)cc3)c(-c3ccccc3O)nc2c1 please.
Output: low class

Task: Now the same for CN(C)CCNC(=O)c1ccc2nc(-c3ccccc3O)c(NCc3cccc(Cl)c3)n2c1
Output: middle class

Task: For O=C(NCCO)c1ccc2nc(-c3ccccc3O)c(NCc3ccc(F)cc3)n2c1 then?
Output: middle class

Task: Request: NCc1ccc2nc(-c3ccccc3O)c(NCc3cccc(Cl)c3)n2c1
Output: low class

Task: Cool, now Oc1ccccc1-c1nc2ccccn2c1NCc1cccc(Cl)c1
Output: middle class

Task: Would you mind doing OCc1ccc2nc(-c3ccccc3O)c(NCc3ccc(F)cc3)n2c1 as well?
Output: middle class

Task: Now try Oc1ccc(-c2nc3ccccn3c2NCc2cccc(F)c2)cc1 .
Output: high class

Task: Now give it for Cc1cccc2cc3c(nc12)OCC(=O)N(Cc1ccc(Cl)cc1)C3 too.
Output: high class

Task: Please answer likewise for N#Cc1ccn2c(NC3CCCC3)c(-c3ccc(O)cc3)nc2c1
Output: high class

Task: Also Oc1ccc(-c2nc3ccc(F)cn3c2NC2CCCC2)cc1 , if possible.
Output: high class

Task: Next: Cc1ccc2cc(-c3nc4cc(C)ccn4c3NCc3cccc(Cl)c3)c(O)nc2c1
Output: middle class

Task: Now try CC(C)(O)c1ccc2nc(-c3ccccc3O)c(NCc3cccc(Cl)c3)n2c1 .
Output: middle class

Task: Repeat with COCCNC(=O)c1ccc2nc(-c3ccccc3O)c(NCc3ccc(F)cc3)n2c1
Output: middle class

###

Test system: SKM MYOFIBRIL
Assay: SKM myofibril AC1.4 (ATPase, PK/LDH coupled enzyme system); also: unit not given here
Format: biochemical
Conditions: screen at pCa=6.5
Category | rule: reported SKM MYOFIBRIL AC1.4 (median) within range, see LOW = under 10, MEDIUM = from 10 up to 20, HIGH = 20 and over

Example entries begin here.
1. Oc1ccccc1-c1nc2cnccn2c1NCc1cccs1 MEDIUM
2. Cc1ccn2c(NCc3ccc(F)cc3)c(-c3ccc(O)cc3)nc2c1 HIGH
3. Cc1cccc(CNc2c(-c3ccccc3O)nc3cc(C)ccn23)c1 LOW
4. COc1ccc(-c2nc3ccccn3c2NC2CCCCC2)cc1 MEDIUM

Task: Bin this entry: COc1ccc(-c2nc3cc(C)ccn3c2NCc2cccc(Cl)c2)c(O)c1
Output: HIGH

Task: Please give the result for COc1ccc(-c2nc3ccc(C)cn3c2NC2CCCCC2)cc1O too.
Output: LOW

Task: Record: C[C@H](Nc1c(-c2ccc(O)cc2)nc2ccccn12)c1ccccc1
Output: HIGH

Task: What do you get for Oc1ccccc1-c1nc2c(Br)cccn2c1NCc1cccc(Cl)c1 ?
Output: MEDIUM

Task: Oc1ccccc1-c1nc2ccc(Br)cn2c1NCc1cccc(Cl)c1 , same question.
Output: LOW

Task: Further, for Oc1ccc(-c2nc3ccc(F)cn3c2NCc2ccc(F)cc2)cc1 ?
Output: HIGH

###

Test system: SKM MYOFIBRIL
Test: SKM myofibril AC1.4 (ATPase, PK/LDH coupled enzyme system); also: unit not given here
Type: biochemical
Details: screen at pCa=6.5
Consider the following compounds; for each one, report its SKM MYOFIBRIL AC1.4 (median).
Numbers only.

1) CC(C)(O)c1ccc2nc(-c3ccccc3O)c(NCc3ccc(F)cc3)n2c1 4.1299
2) Oc1ccccc1-c1nc2ccc(Cl)cn2c1NCc1ccc(F)cc1 3.5116
3) Cc1ccn2c(NC3CCCCC3)c(-c3ccoc3)nc2c1 30.5823
4) CCc1ccn2c(NC3CCCC3)c(-c3ccc(O)cc3)nc2c1 7.5674
5) Cc1ccn2c(NCc3ccccc3)c(-c3ccccc3O)nc2c1 2.0618

Next compound, please.
Task: Given Cc1ccc2cc(-c3nc4cc(C)ccn4c3NCc3ccc(F)cc3)c(O)nc2c1 , state its recorded SKM MYOFIBRIL AC1.4 (median).
Output: 38.7091

###

Test system: SKM MYOFIBRIL
Assay: SKM myofibril AC1.4 (ATPase, PK/LDH coupled enzyme system); also: unit not given here
Assay type: biochemical
Conditions: screen at pCa=6.5
Consider the reported SKM MYOFIBRIL AC1.4 (median) of an entry and match it to a band in low = under 3, mid = from 3 up to 20, high = 20 and over

// below: answered compounds
1. Cc1cccn2c(NC3CCCCC3)c(-c3ccc(O)cc3)nc12 mid
2. CN(C)CCNC(=O)c1ccc2nc(-c3ccccc3O)c(NCc3ccc(F)cc3)n2c1 mid
3. CCC(C)(C)Nc1c(-c2cc3ccc(C)c(C)c3nc2O)nc2ccccn12 low
4. Cc1ccn2c(NCc3ccc(F)cn3)c(-c3ccccc3O)nc2c1 mid
5. Cc1ccc2nc(-c3ccccc3O)c(NCc3cccc(Cl)c3)n2c1 low
6. Cc1ccc(-c2nc3cc(C)ccn3c2NC2CCCC2)cc1 mid
7. Oc1ccccc1-c1nc2ccccn2c1NCc1ccc(F)cc1 mid
8. Cc1ccn2c(NCc3cccc(Cl)c3)c(-c3ccc(O)cc3O)nc2c1 high
9. Oc1ccc(-c2nc3ccccn3c2NCc2ccccc2)cc1 high
10. O=C(O)c1ccc2nc(-c3ccccc3O)c(NCc3cccc(Cl)c3)n2c1 mid

Task: Quick check: band for COC(=O)c1ccc2nc(-c3ccccc3O)c(NCc3ccc(F)cc3)n2c1
Output: mid

Task: Next record, please: C[C@@H](Nc1c(-c2ccc(O)cc2)nc2ccccn12)c1ccccc1
Output: high

###

Exercise: state measured SKM MYOFIBRIL AC1.4 (median) for each of the compounds provided.
Test system: SKM MYOFIBRIL
Test: SKM myofibril AC1.4 (ATPase, PK/LDH coupled enzyme system); also: unit not given here
Type: biochemical
Details: screen at pCa=6.5
One number for each entry.

Before answering, review these 3 worked examples.
1) Fc1ccc(-c2nc3ccccn3c2NC2CCCCC2)cc1 9.155
2) CC(C)(C)CC(C)(C)Nc1c(-c2ccc(O)cc2)nc2ccccn12 23.4246
3) Oc1ccc(-c2nc3ccccn3c2NC2CCCCC2)cc1 8.513

Quick one: give me SKM MYOFIBRIL AC1.4 (median) for each item below, same order please.
1. CN(C)C(=O)c1ccc2nc(-c3ccccc3O)c(NCc3cccc(Cl)c3)n2c1
2. Cc1ccn2c(NCc3cccc(Cl)c3)c(-c3ccccc3O)nc2n1

Output:
16.9244
7.147

Value sought for every listed compound: SKM MYOFIBRIL AC1.4 (median).
1. COc1cccc(-c2nc3ccccn3c2NCc2cccc(Cl)c2)c1
2. Cc1ccc(CNc2c(-c3ccccc3O)nc3cc(C)ccn23)cc1
3. OCc1ccn2c(NCc3cccc(Cl)c3)c(-c3ccccc3O)nc2c1
4. COc1ccccc1CNc1c(-c2ccccc2O)nc2cc(C)ccn12
5. Cc1ccc2nc(-c3ccc(O)cc3)c(NC3CCCC3)n2c1
6. CN(C)CCNCc1ccc2nc(-c3ccccc3O)c(NCc3cccc(Cl)c3)n2c1

Output:
[35.6445, 16.3079, 1.9956, 1.9683, 13.5754, 6.9925]

# per-item lookup of SKM MYOFIBRIL AC1.4 (median); items listed below
1. Oc1ccc(-c2nc3ccc(Cl)cn3c2NCc2ccc(F)cc2)cc1
2. COCCNC(=O)c1ccc2nc(-c3ccccc3O)c(NCc3cccc(Cl)c3)n2c1
3. Cc1ccn2c(NCc3cccc(Cl)c3)c(-c3ncccc3O)nc2c1
4. NC(=O)c1ccc2nc(-c3ccccc3O)c(NCc3cccc(Cl)c3)n2c1
5. CCC(C)(C)Nc1c(-c2cc3cccc(C)c3nc2O)nc2ccccn12
6. N#Cc1ccc2nc(-c3ccc(O)cc3)c(NC3CCCC3)n2c1

Output:
14.9602
2.0573
36.9847
1.2788
2.3075
46.9669

Report SKM MYOFIBRIL AC1.4 (median) for every entry below.
1. Cc1ccn2c(NCc3ccc(F)cc3F)c(-c3ccccc3O)nc2c1
2. Cc1cn2c(NCc3cccc(Cl)c3)c(-c3ccccc3O)nc2c(C)n1
3. COC(=O)c1ccn2c(NCc3cccc(Cl)c3)c(-c3ccccc3O)nc2c1
4. Oc1ccccc1-c1nc2cc(Br)ccn2c1NCc1cccc(Cl)c1
5. Oc1ccccc1-c1nc2ccccn2c1NC1CCCC1
6. Oc1ccc(-c2nc3ccc(Br)cn3c2NC2CCCCC2)cc1
7. Oc1ccccc1-c1nc2cnccn2c1NCc1ccc(F)cc1

Output:
1: 0.959; 2: 6.4593; 3: 5.1088; 4: 8.3071; 5: 11.2917; 6: 12.8016; 7: 4.6013
